experimentSummary: Microsome stability, human
Format: in vitro ADME
studyConditions: sodium salt, human microsomes, 30 min
quantityMeasured: Microsome stability (% parent remaining), Human

compound: O=C1Cc2cc(-c3ccc(-c4cncc(NS(=O)(=O)c5ccc(F)cc5F)c4)s3)ccc2N1 [Compound 14]
valueReported: 71%

compound: O=C1NCc2ccc(-c3ccc(-c4cncc(NS(=O)(=O)c5ccc(F)cc5F)c4)s3)cc21 [Compound 7]
valueReported: 83%

compound: CN1Cc2cc(-c3ccc(-c4cncc(NS(=O)(=O)c5ccc(F)cc5F)c4)s3)ccc2C1=O [Compound 5]
valueReported: 58%

Exercise: # lookup: Microsome stability (% parent remaining), Human of O=C1NCc2cc(-c3ccc(-c4cncc(NS(=O)(=O)c5ccc(F)cc5F)c4)s3)ccc21 [Compound 6]
Solution: 85%

---

testSystem: recombinant perforin (Mus musculus)
Sequence (P10820 21-554): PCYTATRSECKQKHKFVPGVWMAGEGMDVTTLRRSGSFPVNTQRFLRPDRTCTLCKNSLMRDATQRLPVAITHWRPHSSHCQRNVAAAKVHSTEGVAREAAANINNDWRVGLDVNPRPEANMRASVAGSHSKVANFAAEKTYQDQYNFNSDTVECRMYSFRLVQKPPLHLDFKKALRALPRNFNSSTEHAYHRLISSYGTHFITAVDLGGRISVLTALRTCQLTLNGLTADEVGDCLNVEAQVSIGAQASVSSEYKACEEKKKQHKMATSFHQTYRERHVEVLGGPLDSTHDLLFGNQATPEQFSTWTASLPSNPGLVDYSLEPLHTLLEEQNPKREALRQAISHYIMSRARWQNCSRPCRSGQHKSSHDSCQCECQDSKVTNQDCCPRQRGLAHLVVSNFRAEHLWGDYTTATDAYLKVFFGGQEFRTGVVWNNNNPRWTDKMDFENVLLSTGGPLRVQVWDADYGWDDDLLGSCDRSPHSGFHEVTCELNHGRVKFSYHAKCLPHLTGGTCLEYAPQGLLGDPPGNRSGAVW
experimentSummary: Inhibition of perforin-mediated lysis of Jurkat cells (51Cr release)
Type: cell-based
studyConditions: recombinant perforin, 0.1% BSA, 51Cr release, 4 h; average of at least two determinations; read-out: Inhibition of Jurkat cell lysis IC50
pIC50: −log10 of the molar value.
quantityMeasured: pIC50

Worked examples, 4 compounds total:
compound: O=C1NCCc2cc(-c3ccc(-c4cncc(NS(=O)(=O)c5ccc(F)cc5F)c4)s3)ccc21 [Compound 9]
testSystem: recombinant perforin (Mus musculus)
pIC50: < 4.70
--
compound: CN1Cc2cc(-c3nc(-c4cncc(NS(=O)(=O)c5ccc(F)cc5F)c4)cs3)ccc2C1=O [Compound 21]
testSystem: recombinant perforin (Mus musculus)
pIC50: < 4.70
--
compound: O=C1NCCc2ccc(-c3ccc(-c4cncc(NS(=O)(=O)c5ccc(F)cc5F)c4)s3)cc21 [Compound 11]
testSystem: recombinant perforin (Mus musculus)
pIC50: < 4.70
--
compound: CN1Cc2cc(-c3ccc(-c4cncc(NS(=O)(=O)c5ccc(F)cc5F)c4)o3)ccc2C1=O [Compound 19]
testSystem: recombinant perforin (Mus musculus)
pIC50: 4.82

Consider the following items and state reported pIC50 for each.
1. CN1CCc2cc(-c3ccc(-c4cncc(NS(=O)(=O)c5ccc(F)cc5F)c4)s3)ccc2C1=O [Compound 10]
2. CC1c2cc(-c3ccc(-c4cncc(NS(=O)(=O)c5ccc(F)cc5F)c4)s3)ccc2C(=O)N1C (stereo not drawn) [Compound 13]

Solution:
1: < 4.70; 2: < 4.70
